# credit: patent US8895585B2

Reported pIC50 is given for each of the following compounds.
# experimental target: glutathione S-transferase (GST)-fused full-length human Syk protein (Homo sapiens, UniProt P43405)
# Construct: (GST)-fused full-length human Syk protein; GST (glutathione S-transferase); purchased Carna Biosciences
# protocol details: Syk enzyme assay
# Format: biochemical
# protocol conditions: Syk enzyme assay, Test Example 1; read-out: IC50 of Syk-inhibitory activity
pIC50: −log10 of the molar value.

1) NCC(CCC(F)(F)F)Nc1nc(Nc2cncc(-c3ccccc3)c2)c(C(N)=O)cc1F (stereo not shown) [Example 006-305]
7.30 to 8.00
2) COc1cc(Nc2nc(NC(C(N)=O)c3ccccc3)c(F)cc2C(N)=O)cc(OC)c1 (stereo not shown) [Example 016-009]
7.30 to 8.00
3) CC[C@@H](Nc1nc(Nc2cnc(C)c(C3CC3)c2)c(C(N)=O)cc1F)[C@H](C)N [Example 006-272]
7.30 to 8.00

-- ask Return reported pIC50; argument: NC(=O)c1cc(F)c(NC2CCCCC2N)nc1Nc1cncc(NC(=O)c2ccco2)c1 (stereo not shown) [Example 027-033]
-- reply > 8.00

---

# experimental target: glutathione S-transferase (GST)-fused full-length human Syk protein (Homo sapiens, UniProt P43405)
# Construct: (GST)-fused full-length human Syk protein; GST (glutathione S-transferase); purchased Carna Biosciences
# protocol details: Syk enzyme assay
# Type: biochemical
# protocol conditions: Syk enzyme assay, Test Example 1; read-out: IC50 of Syk-inhibitory activity
pIC50: −log10 of the molar value.
Reported pIC50 is given for each of the following compounds.

These solved cases illustrate the format of a correct answer.
1. NC(=O)c1cc(F)c(NC[C@@H](N)c2ccsc2)nc1Nc1ccc2ncccc2c1
> 8.00
2. COc1ccc(F)c(-c2cc(Nc3nc(N[C@@H](CN)CC(C)C)c(F)cc3C(N)=O)ccn2)c1
> 8.00
3. CC(C)C[C@H](CN)Nc1nc(Nc2cccc3cccnc23)c(C(N)=O)cc1F
7.30 to 8.00
4. CC[C@@H](Nc1nc(Nc2ccc(N3CCOCC3)nc2)c(C(N)=O)cc1F)[C@H](C)N
7.30 to 8.00
5. NC(=O)c1cc(F)c(N[C@@H]2CCCC[C@@H]2N)nc1Nc1cnc2c(O)cccc2c1 (relative stereo)
> 8.00

-- ask Return reported pIC50; argument: Cc1ncc(Nc2nc(N[C@H](CC3CC3)[C@H](C)N)c(F)cc2C(N)=O)cc1-n1nccn1
-- reply 7.30 to 8.00

-- ask Return reported pIC50; argument: Cc1cccc(Nc2nc(NC3CCCCC3N)c(Cl)cc2C(N)=O)c1 (stereo not drawn)
-- reply > 8.00

-- ask Return reported pIC50; argument: NC(=O)c1cc(F)c(NC2CCCCC2N)nc1Nc1ccc(N2CCCC2)nc1 (stereo not drawn)
-- reply 7.30 to 8.00

-- ask Return reported pIC50; argument: CC(C)C[C@H](CN)Nc1nc(Nc2cccc3c2cnn3C)c(C(N)=O)cc1F
-- reply > 8.00

-- ask Return reported pIC50; argument: NC(=O)c1cc(F)c(N[C@@H]2CCCC[C@@H]2N)nc1Nc1cncc(-c2ccc(N3CCOCC3)cc2)c1 (relative stereo)
-- reply > 8.00

-- ask Return reported pIC50; argument: CCc1nn(C)c2ccc(Nc3nc(N[C@H](CC(C)C)[C@H](C)N)c(F)cc3C(N)=O)cc12
-- reply > 8.00

-- ask Return reported pIC50; argument: CC(C)C[C@H](CN)Nc1nc(Nc2ccc3c(cnn3CCF)c2)c(C(N)=O)cc1F
-- reply > 8.00

-- ask Return reported pIC50; argument: NC(=O)c1cc(F)c(NC2CCCCC2N)nc1Nc1cncc(NC(=O)c2cccc(F)c2F)c1 (stereo not drawn)
-- reply 7.30 to 8.00

-- ask Return reported pIC50; argument: NC(=O)c1cc(F)c(NC(Cc2ccc(F)cc2)C(N)=O)nc1Nc1ccc2ncccc2c1 (stereo not drawn)
-- reply 7.30 to 8.00

-- ask Return reported pIC50; argument: COc1cc(Nc2nc(N[C@H](c3ccccc3)[C@@H](N)c3ccccc3)c(F)cc2C(N)=O)cc(OC)c1 (racemic)
-- reply 7.30 to 8.00
